Biological target: SARS-CoV-2 S protein RBD RBD (Severe acute respiratory syndrome coronavirus 2), P0DTC2
Conditions: modification not given
Recorded metric: Kd (nM)
Answer with a number only, understood to be in nM.

Any idea what its Kd is? The binder is DKWSAFLKEQSTIAQMYPLQECI [h2 (67-89)]
2580
